biological target: Cbl-b (Homo sapiens (Human), UniProt Q13191); assay: Cbl-b LCK Ub TR-FRET assay (Cbl-b Lck HTRF); assay type: biochemical
Sequence (Q13191 40-426): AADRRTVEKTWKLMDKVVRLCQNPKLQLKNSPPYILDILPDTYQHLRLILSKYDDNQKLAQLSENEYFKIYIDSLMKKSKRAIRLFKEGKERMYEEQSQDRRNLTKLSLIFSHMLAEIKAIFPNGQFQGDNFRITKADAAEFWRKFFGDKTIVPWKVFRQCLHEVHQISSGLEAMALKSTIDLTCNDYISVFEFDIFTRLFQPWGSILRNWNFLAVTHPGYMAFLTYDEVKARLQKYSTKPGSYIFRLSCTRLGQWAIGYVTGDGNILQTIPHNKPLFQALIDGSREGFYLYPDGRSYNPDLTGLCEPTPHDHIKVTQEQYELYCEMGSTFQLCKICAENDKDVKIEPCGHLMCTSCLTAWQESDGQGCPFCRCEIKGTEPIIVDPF
Structures can show the parent of a compound that is named as a salt.
Recorded measurements of log10 of IC50, one per entry
measured property: log10 of IC50 (log10 of the value in nM)

{"columns": ["compound", "test value"],
 "data": [
  ["Cn1cnnc1[C@H](F)C1(c2cccc(N3Cc4c(cc(CNC5(C)CCC5)cc4C(F)(F)F)C3=O)c2)COC1 [Compound 230]", 1.11],
  ["Cn1cnnc1CC1(c2cc(OC3CCCC3)nc(N3Cc4c(cc(CNC5(C)CCC5)cc4C(F)(F)F)C3=O)c2)COC1 [Compound 294]", 0.98],
  ["Cn1cnnc1CC1(c2cc(NC34CCC(C3)C4)nc(N3Cc4c(cccc4C(F)(F)F)C3=O)c2)COC1 [Compound 493]", 2.80],
  ["Cn1cnnc1C[C@]1(c2cccc(N3Cc4c(cccc4C(F)(F)F)C3=O)c2)C[C@H](F)C1 [Compound 100]", 2.28],
  ["Cn1cnnc1CC1(c2cccc(N3Cc4c(cc(CNCC5CCOC5)cc4C(F)(F)F)C3=O)c2)CC(F)(F)C1 (stereo not shown) [Compound 358, formate]", 1.20],
  ["Cn1cnnc1CC(F)c1cccc(N2Cc3c(cccc3C(F)(F)F)C2=O)c1 (racemic) [Compound 14]", 4.00],
  ["Cn1cnnc1[C@H](F)C1(c2cccc(N3Cc4c(cc(CN5CC[C@H](F)C5)cc4C(F)(F)F)C3=O)c2)COC1 [Compound 82]", 1.45]
]}
